molecular target: T1, human melanocortin-5 receptor (hMC5-R) (human, UniProt P33032 1-325); assay: 125I-NDP-α-MSH competition, hMC5-R membranes
T1 construct: whole, on cells; membranes prepared from hMC5-R cells were used; also called Melanocortin Receptor 5
T1 sequence (P33032 whole entry): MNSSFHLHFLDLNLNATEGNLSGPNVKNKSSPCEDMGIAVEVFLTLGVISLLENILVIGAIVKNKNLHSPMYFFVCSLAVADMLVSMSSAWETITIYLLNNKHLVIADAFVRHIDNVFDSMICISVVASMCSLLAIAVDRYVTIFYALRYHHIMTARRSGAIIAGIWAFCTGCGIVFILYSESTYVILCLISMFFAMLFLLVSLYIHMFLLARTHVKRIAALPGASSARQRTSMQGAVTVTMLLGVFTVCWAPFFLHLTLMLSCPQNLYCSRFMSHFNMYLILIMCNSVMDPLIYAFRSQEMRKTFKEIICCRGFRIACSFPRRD
Square brackets hold non-standard residues; d marks the D form. Ends that are not written are not given here. Nle = CCCC[C@H](N)C(=O)O
Documented % Inhibition at 1 µM across a set of binders
Please state the figure in %; there is no need to write the unit.

Solved entries (count: 5):
Ac-SYS[Nle]EH[dC]FRWGKPV-NH2 (also: oxorhenium(V) N3S1 chelate at D-Cys 7) [metallopeptide 2-8] ... 29
YVXGHFRWDRFC (not fully specified; Nle 3; C-terminal amide; Re complexed at Cys 12) [metallopeptide 4-1] ... 41
Ac-SYS[Nle]EHFRWGK[dC]PV-NH2 (also: oxorhenium(V) N3S1 chelate at D-Cys12) [metallopeptide 2-3] ... 38
YV[Nle]GHCFRWDRF-NH2 (also: oxorhenium(V) N3S1 chelate: C6 SG + backbone N of G4, H5, C6, bridge at 6 via Re(V)=O, other end not in the chain) [metallopeptide 4-7] ... 15
YV[Nle]GHFRWDRCF-NH2 (also: oxorhenium(V) N3S1 chelate: C11 SG + backbone N of D9, R10, C11, bridge at 11 via Re(V)=O, other end not in the chain) [metallopeptide 4-2] ... 51

// next item, % Inhibition at 1 µM requested
Measured % Inhibition at 1 µM of YVXGHFRWDRF (Nle 3; C-terminal amide, not complexed to Re) [[Nle3]-γ-MSH parent polypeptide Tyr-Val-Nle-Gly-His-Phe-Arg-Trp-Asp-Arg-Phe-NH2] : 43
